- test.protocol: Tissue analysis: recovery of TPP from serum and tissues after injection
- Format: in vivo, mice
- conditions.used: mouse, kidneys, iv, 2 mg/kg; 3 hours after injection; average of 6 mice, maximum deviation ±20%; read-out: Recovery, kidneys
measured.parameter: concentration at 3 h

Quick check: concentration at 3 h of CCCC1=Cc2nc1ccc1[nH]c(cc1CCC)c1nc(ccc3[nH]c2cc3CCC)C(CCC)=C1 [TPP, 2,7,12,17-tetra-n-propylporphycene] ?
1250 ng/g

* * *

- test.protocol: Tissue analysis: recovery of TPP from serum and tissues after injection
- Assay type: in vivo, mice
- conditions.used: mouse, serum, iv, 2 mg/kg; 24 hours after injection; average of 6 mice, maximum deviation ±20%; read-out: Recovery, serum
measured.parameter: concentration at 24 h (ng/mL)
Report the value in ng/mL with no unit label.

What measured concentration at 24 h goes with CCCC1=Cc2nc1ccc1[nH]c(cc1CCC)c1nc(ccc3[nH]c2cc3CCC)C(CCC)=C1 ?
25600

* * *

- test.protocol: Tissue analysis: recovery of TPP from serum and tissues after injection
- Format: in vivo, mice
- conditions.used: mouse, liver, iv, 2 mg/kg; 24 hours after injection; average of 6 mice, maximum deviation ±20%; read-out: Recovery, liver
measured.parameter: concentration at 24 h (ng/g)
Response body: numeric value in ng/g, unit text excluded.

Any idea what its concentration at 24 h is? The compound is CCCC1=Cc2nc1ccc1[nH]c(cc1CCC)c1nc(ccc3[nH]c2cc3CCC)C(CCC)=C1 [TPP, 2,7,12,17-tetra-n-propylporphycene]
11100

* * *

- test.protocol: Tissue analysis: recovery of TPP from serum and tissues after injection
- Assay type: in vivo, mice
- conditions.used: mouse, spleen, iv, 2 mg/kg; 24 hours after injection; average of 6 mice, maximum deviation ±20%; read-out: Recovery, spleen
measured.parameter: concentration at 24 h

// concentration at 24 h lookup, key: CCCC1=Cc2nc1ccc1[nH]c(cc1CCC)c1nc(ccc3[nH]c2cc3CCC)C(CCC)=C1
2940 ng/g

* * *

- test.protocol: Tissue analysis: recovery of TPP from serum and tissues after injection
- Assay type: in vivo, mice
- conditions.used: mouse, muscle, iv, 2 mg/kg; 24 hours after injection; average of 6 mice, maximum deviation ±20%; read-out: Recovery, muscle
measured.parameter: concentration at 24 h (ng/g)
// note: answer is a bare numeric in ng/g

Which concentration at 24 h value is on record for CCCC1=Cc2nc1ccc1[nH]c(cc1CCC)c1nc(ccc3[nH]c2cc3CCC)C(CCC)=C1 ?
90
